# TARGET_OR_TEST_SYSTEM: Nuclear receptor subfamily 5 group A member 2 (Homo sapiens) (UniProt O00482)
# Sequence (O00482 whole entry, looked up): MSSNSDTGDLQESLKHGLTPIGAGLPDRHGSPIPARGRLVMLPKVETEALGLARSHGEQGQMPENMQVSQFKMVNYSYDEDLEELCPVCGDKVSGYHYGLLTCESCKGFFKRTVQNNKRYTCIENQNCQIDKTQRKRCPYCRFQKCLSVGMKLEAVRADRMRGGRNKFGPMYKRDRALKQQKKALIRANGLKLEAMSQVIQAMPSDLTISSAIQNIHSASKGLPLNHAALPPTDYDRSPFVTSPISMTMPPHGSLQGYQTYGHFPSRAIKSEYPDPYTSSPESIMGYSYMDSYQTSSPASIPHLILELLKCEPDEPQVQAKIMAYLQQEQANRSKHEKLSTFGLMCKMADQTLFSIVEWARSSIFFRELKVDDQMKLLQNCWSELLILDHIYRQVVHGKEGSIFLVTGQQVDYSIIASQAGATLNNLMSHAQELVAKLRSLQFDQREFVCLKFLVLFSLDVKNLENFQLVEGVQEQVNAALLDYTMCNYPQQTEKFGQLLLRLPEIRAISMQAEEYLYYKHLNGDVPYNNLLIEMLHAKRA
# ASSAY_NAME: concentration-dependent NR5A2 reporter suppression – cell-based, luminescence, late stage, dose response (AID 651976)
# MEASUREMENT_SETUP: cell-based LRH-1 luciferase reporter, inverse agonist
Calls of active or inactive are those of the source. The rule behind the calls is not given here.
Tick one outcome: active, inactive

INSERT INTO results (molecule, target_or_test_system, cat) VALUES
  ('CC(=O)c1ccc(OC(C)C(=O)OCC(=O)NCCc2ccccc2)cc1 (stereo unspecified)', 'Nuclear receptor subfamily 5 group A member 2 (Homo sapiens) (UniProt O00482)', 'inactive');

Asked: Record lookup: outcome of this test for CC(=O)c1ccc(NC(=O)C(C)O/N=C(\N)c2ccccc2)cc1 (stereo unspecified) ?
Given back: active

Asked: I would be grateful if you could indicate the recorded call for COc1ccccc1Oc1nnnn1-c1ccc(C(N)=O)cc1 .
Given back: active

Asked: Kindly provide the recorded test outcome for the following molecule: Cc1cccc(NC(=O)COC(=O)Cc2cccs2)c1C
Given back: inactive

---

# TARGET_OR_TEST_SYSTEM: Nuclear receptor subfamily 5 group A member 2 (Homo sapiens) (UniProt O00482)
# ASSAY_NAME: concentration-dependent NR5A2 reporter suppression – cell-based, luminescence, late stage, dose response (AID 651976)
# MEASUREMENT_SETUP: cell-based LRH-1 luciferase reporter, inverse agonist
Active and inactive are the calls of the source. How the calls were made is not given here.
# valid calls are active, inactive; nothing else

INSERT INTO results (molecule, cat) VALUES
  ('O=C(NCC1CCCO1)c1ccc(NC(=O)c2cccc([N+](=O)[O-])c2)cc1 (stereo not given)', 'active');

Asked: What classification did O=C1CCCN2N=C(SCC(=O)Nc3ccc(Br)cc3)SC2=N1 end up with in this test?
Given back: inactive

Asked: Dear all, I need the recorded test outcome for CCc1cc(=O)oc2c(C)c(OCC(=O)NCCN3CCOCC3)ccc12 , thank you.
Given back: inactive

Asked: Give the logged outcome of this assay for the following molecule: CCOc1ccc(NC(=O)CSc2nccn(-c3ccc4c(c3)OCCO4)c2=O)cc1
Given back: active

Asked: I would be grateful if you could indicate the recorded call for COc1ccc(CCNC(=O)COC(=O)C23CC4CC(CC(C4)C2)C3)cc1 .
Given back: active

Asked: Look up the recorded call for O=C(COC(=O)c1ccc(=O)n(Cc2ccccc2)n1)Nc1ccc2c(c1)OCCO2 in this test.
Given back: inactive

Asked: Answer briefly: the call reported for CCOc1ccc(NC(=O)COC(=O)CC2CCCCC2)cc1 in this assay.
Given back: inactive

Asked: In this assay, the call recorded for CC(=O)Nc1ccc(N=c2cc([N+](=O)[O-])cc(Cl)n2O)cc1 was what?
Given back: active

---

# TARGET_OR_TEST_SYSTEM: Nuclear receptor subfamily 5 group A member 2 (Homo sapiens) (UniProt O00482)
# ASSAY_NAME: concentration-dependent NR5A2 reporter suppression – cell-based, luminescence, late stage, dose response (AID 651976)
# MEASUREMENT_SETUP: cell-based LRH-1 luciferase reporter, inverse agonist
The source made the active and inactive calls. The rule behind the calls is not given here.
Would you mind answering with one of these outcomes? label 1 = active, label 0 = inactive

Example entries begin here.
INSERT INTO measurements (compound, cat) VALUES
  ('COC(=O)c1ccc(NC(=O)COc2cccc(-n3cnnn3)c2)cc1', 'label 1'),
  ('O=C(COC(=O)c1ccc(Br)cc1)Nc1ccccc1Br', 'label 1'),
  ('COc1ccc(C2(C)NC(=O)N(CC(=O)NCCC3=CCCCC3)C2=O)cc1OC (configuration not stated)', 'label 0'),
  ('COc1ccc(CCNC(=O)COC(=O)Cc2ccccc2[N+](=O)[O-])cc1', 'label 0'),
  ('CCOc1ccc(NC(=O)CSc2nnc(C(C)C)n2CC)cc1', 'label 0');

Asked: Check the results log: what was the call for NC(=O)C1CCN(C(=O)COc2ccc3c4c(c(=O)oc3c2)CCCC4)CC1 ?
Given back: label 0

Asked: Test call for this compound, please: Cc1ccc(NC(=O)COC(=O)C(NS(=O)(=O)c2ccc(Cl)cc2)C(C)O)cc1C (configuration not stated)
Given back: label 1

---

# TARGET_OR_TEST_SYSTEM: Nuclear receptor subfamily 5 group A member 2 (Homo sapiens) (UniProt O00482)
# ASSAY_NAME: concentration-dependent NR5A2 reporter suppression – cell-based, luminescence, late stage, dose response (AID 651976)
# MEASUREMENT_SETUP: cell-based LRH-1 luciferase reporter, inverse agonist
Active and inactive are the calls of the source. How the calls were made is not given here.
Output constraint: value belongs to yes (active), no (inactive)

INSERT INTO results (smiles_repr, target_or_test_system, cat) VALUES
  ('Cc1sc(NC(=O)C(C)C)c(C(=O)Nc2ccccc2)c1C', 'Nuclear receptor subfamily 5 group A member 2 (Homo sapiens) (UniProt O00482)', 'yes');

Next compound, please.
Asked: Hi, do you know how CCCc1cc(=O)oc2cc(OCC(=O)NCCc3ccc(S(N)(=O)=O)cc3)ccc12 came out in this test?
Given back: no

---

# TARGET_OR_TEST_SYSTEM: Nuclear receptor subfamily 5 group A member 2 (Homo sapiens)
# ASSAY_NAME: concentration-dependent NR5A2 reporter suppression – cell-based, luminescence, late stage, dose response (AID 651976)
# MEASUREMENT_SETUP: cell-based LRH-1 luciferase reporter, inverse agonist
Active and inactive are the calls of the source. The rule behind the calls is not given here.
// one of yes (1) = active, no (0) = inactive, no free text

Example cases with answers are listed next.
INSERT INTO assay_data (smiles_repr, cat) VALUES
  ('O=C(CSc1nnc(CNC(=O)c2c(F)cccc2F)o1)Nc1ccc2c(c1)OCCO2', 'yes (1)'),
  ('O=C(CSc1nnc(CNC(=O)c2ccccc2F)o1)Nc1ccc2c(c1)OCCO2', 'yes (1)'),
  ('COc1ccc(CCNC(=O)CSc2ccc(NC(C)=O)cc2)cc1OC', 'yes (1)'),
  ('Cc1cc(Br)ccc1NC(=O)CN1C(=O)CCC1=O', 'yes (1)'),
  ('CCc1c(C)nc(SCC(=O)Nc2ccc3c(c2)OCCO3)[nH]c1=O', 'yes (1)');

Asked: I would be grateful if you could indicate the recorded call for COc1ccc(-n2c(N)c(C(=O)NCc3cccnc3)sc2=S)cc1 .
Given back: no (0)

Asked: Recorded test call requested for COc1ccc(CCNC(=O)COC(=O)c2cccn2C)cc1
Given back: no (0)

Asked: Assay outcome for COC(=O)c1ccc(NC(=O)CSc2nncn2-c2cccnc2)cc1 : what was it?
Given back: no (0)

Asked: # fetch the recorded call for Cc1cc(OCC(=O)Nc2nccs2)c2c(C)cc(=O)oc2c1 here
Given back: yes (1)

Asked: Outcome? O=C(NCc1ccco1)c1nn(-c2ccccc2)c(=O)c2ccccc12
Given back: yes (1)

Asked: What is the recorded call for this molecule in the test? Cc1ccc(-c2csc(NC(=O)c3ccc([N+](=O)[O-])o3)n2)cc1
Given back: no (0)

Asked: Recorded test outcome, item Cc1cccc(NC(=O)COC(=O)CN2C(=O)c3ccccc3C2=O)c1C
Given back: no (0)

Asked: Per the assay record, what outcome was assigned to COc1ccc(NS(=O)(=O)c2ccc(OCC(=O)N3CCN(C)CC3)cc2)cc1Cl ?
Given back: yes (1)

Asked: Name the outcome recorded for O=C(COc1ccc2c3c(c(=O)oc2c1)CCCC3)NCc1ccccn1 in the assay.
Given back: no (0)

Asked: What did this assay record as the result for COc1ccc(NC(=O)CSc2sc3c(O)cc(=O)[nH]c3c2C#N)c(OC)c1 ?
Given back: no (0)
